Molecular target: Renin (Homo sapiens, UniProt P00797)
Sequence (P00797 whole entry): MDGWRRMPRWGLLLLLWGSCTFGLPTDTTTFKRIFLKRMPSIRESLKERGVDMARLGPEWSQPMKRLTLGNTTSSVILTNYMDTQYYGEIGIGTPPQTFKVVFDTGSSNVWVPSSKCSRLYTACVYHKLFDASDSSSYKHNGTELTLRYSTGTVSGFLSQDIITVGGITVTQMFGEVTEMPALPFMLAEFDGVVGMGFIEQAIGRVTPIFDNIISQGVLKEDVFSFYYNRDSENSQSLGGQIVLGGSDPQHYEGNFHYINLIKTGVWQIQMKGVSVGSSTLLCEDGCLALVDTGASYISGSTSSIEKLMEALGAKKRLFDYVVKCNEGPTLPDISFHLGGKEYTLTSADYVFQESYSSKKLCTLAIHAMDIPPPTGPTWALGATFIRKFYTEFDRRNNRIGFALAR
Assay: Inhibition of human plasma renin (pH 7.4)
Assay type: cell-free
Class membership depends on IC50 alone; the intervals are low = under 2 nM, medium = from 2 nM up to 4 nM, high = 4 nM and over

Request: Assign a category based on measured IC50 for CC(C)C[C@H](O)[C@H](O)[C@H](CC1CCCCC1)NC(=O)[C@H](Cc1c[nH]cn1)NC(=O)/C(=C/c1ccccc1)CC(=O)N1CCOCC1 and give only the class name.
Response: medium

Request: Assign a category based on measured IC50 for CC(C)C[C@H](O)[C@H](O)[C@H](CC1CCCCC1)NC(=O)[C@H](Cc1cnc[nH]1)NC(=O)[C@H](Cc1ccccc1)NC(=O)N1CCOCC1 and give only the class name.
Response: low

Request: Assign a category based on measured IC50 for CC(C)C[C@H](O)[C@H](O)[C@H](CC1CCCCC1)NC(=O)[C@H](Cc1cnc[nH]1)NC(=O)[C@@H](NC(=O)N1CCOCC1)C(C)(C)c1ccccc1 and give only the class name.
Response: high

Request: Assign a category based on measured IC50 for CC(C)C[C@H](O)[C@H](O)[C@H](CC1CCCCC1)NC(=O)[C@H](Cc1c[nH]cn1)NC(=O)[C@H](Cc1ccccc1)OC(=O)N1CCOCC1 and give only the class name.
Response: medium

Request: Assign a category based on measured IC50 for CC(C)C[C@H](O)[C@H](O)[C@H](CC1CCCCC1)NC(=O)[C@H](Cc1c[nH]cn1)NC(=O)/C(=C/c1ccccc1)NC(=O)N1CCOCC1 and give only the class name.
Response: high

Request: Assign a category based on measured IC50 for CC(C)C[C@H](O)[C@H](O)[C@H](CC1CCCCC1)NC(=O)[C@H](Cc1c[nH]cn1)NC(=O)[C@@H](CC(=O)N1CCOCC1)Cc1ccccc1 and give only the class name.
Response: low

Request: Assign a category based on measured IC50 for CC(C)C[C@H](O)[C@H](O)[C@H](CC1CCCCC1)NC(=O)[C@H](Cc1c[nH]cn1)NC(=O)[C@H](Cc1ccccc1)NC(=O)N(C)C and give only the class name.
Response: medium

Request: Assign a category based on measured IC50 for CC(C)C[C@H](O)[C@H](O)[C@H](CC1CCCCC1)NC(=O)[C@H](Cc1c[nH]cn1)NC(=O)[C@H](Cc1ccccc1)NC(=O)N1CCNCC1 and give only the class name.
Response: high

Request: Assign a category based on measured IC50 for COc1ccc(C[C@H](NC(=O)N2CCOCC2)C(=O)N[C@@H](Cc2cnc[nH]2)C(=O)N[C@@H](CC2CCCCC2)[C@@H](O)[C@@H](O)CC(C)C)cc1 and give only the class name.
Response: medium
